Assay: Caco-2 membrane permeability, improved method as used in the following Examples (96-well, 20 to 24 h preincubation)
Assay type: in vitro ADME
Details: human, Caco-2, Caco-2 (cm/sec)
Starred links: 1 amine or outer side, 2 acyl side, 3 side chain; linkers in the order of their positions; H or OH if unused. Positions of bridges follow the written chain, without caps; N, C: chain ends. Non-standard residues stand in square brackets, D forms with d. Residues, ends and D or L forms follow the SMILES beside them. *: point of attachment. NMePhe(3-Cl) = CN[C@@H](Cc1cccc(Cl)c1)C(=O)O; X16 = O=C(C1CCCCC1)[C@H](CC(=O)[*:2])N[*:1]; NMeF = CN[C@@H](Cc1ccccc1)C(=O)O; NMeGABA = CN(CCCC(=O)[*:2])[*:1]; 4Pal = N[C@@H](Cc1ccncc1)C(=O)O; NMeD = CN[C@@H](CC(=O)O)C(=O)O; NMeL = CN[C@@H](CC(C)C)C(=O)O; NMeV = CN[C@H](C(=O)O)C(C)C; NMeA = CN[C@@H](C)C(=O)O; Piperidide = C1CCN(*)CC1; dNMeA = CN[C@H](C)C(=O)O; Sar = CNCC(=O)O; tBu = CC(C)(C)*
Each item that follows carries a reported Papp A→B at 180 min.
Answer in ×10⁻⁶ cm/s, number only, no unit symbol.

These recorded examples may help you get a feel for the data.
{"Compound": "CC(C)C[C@H]1C(=O)N[C@@H](C(C)C)C(=O)N(C)[C@@H](Cc2ccccc2)C(=O)N(C)[C@@H](Cc2ccccc2)C(=O)N[C@@H](COC(C)(C)C)C(=O)N(C)[C@@H](CC(C)C)C(=O)N[C@@H]([C@@H](C)O)C(=O)N(C)[C@@H](Cc2ccccc2)C(=O)N(C)[C@@H](CC(C)C)C(=O)N[C@H](C(=O)C2CCCCC2)CC(=O)N(C)CCCC(=O)N1C [pd216] (cyclo([NMeF][NMeF]S(tBu)[NMeL]T[NMeF][NMeL][X16][NMeGABA][NMeL]V))", "Papp A→B at 180 min, ×10⁻⁶ cm/s": 1.2}
{"Compound": "CC[C@H](C)[C@@H]1NC(=O)[C@H](CC(C)C)N(C)C(=O)CCCN(C)C(=O)C[C@@H](C(=O)C2CCCCC2)NC(=O)[C@H](CC(C)C)N(C)C(=O)[C@H](C)N(C)C(=O)[C@H](Cc2ccncc2)NC(=O)[C@H](CC(C)C)N(C)C(=O)[C@H](COC(C)(C)C)NC(=O)[C@H](Cc2cccc(Cl)c2)N(C)C(=O)[C@H](CC(C)C)N(C)C1=O [pd170] (cyclo([4Pal][NMeA][NMeL][X16][NMeGABA][NMeL]I[NMeL][NMePhe(3-Cl)]S(tBu)[NMeL]))", "Papp A→B at 180 min, ×10⁻⁶ cm/s": 1.6}
{"Compound": "CC(C)C[C@@H]1NC(=O)[C@H](Cc2ccccc2)N(C)C(=O)[C@H](C)NC(=O)C[C@@H](C(=O)N2CCCCC2)NC(=O)[C@H](Cc2ccccc2)N(C)C(=O)[C@H](Cc2ccccc2)N(C)C(=O)[C@H](COC(C)(C)C)NC(=O)[C@H](CC(C)C)N(C)C(=O)CN(C)C(=O)[C@H]([C@@H](C)O)NC(=O)[C@H](CC(C)C)N(C)C1=O [pd217] (A[NMeF]L[NMeL]T[Sar][NMeL]S(tBu)[NMeF][NMeF]D-Piperidide; lactam N-11)", "Papp A→B at 180 min, ×10⁻⁶ cm/s": 1.1}
{"Compound": "CC(C)C[C@H]1C(=O)N[C@@H]([C@@H](C)O)C(=O)N(C)CC(=O)N(C)[C@@H](C(C)C)C(=O)N[C@@H](Cc2ccccc2)C(=O)N(C)[C@@H](Cc2cccc(Cl)c2)C(=O)N(C)[C@@H](CC(C)C)C(=O)N(C)[C@H](C(=O)N2CCCCC2)CC(=O)N(C)[C@H](C)C(=O)N[C@@H](Cc2ccccc2)C(=O)N[C@@H](COC(C)(C)C)C(=O)N1C [pd167] ([dNMeA]FS(tBu)[NMeL]T[Sar][NMeV]F[NMePhe(3-Cl)][NMeL][NMeD]-Piperidide; lactam N-11)", "Papp A→B at 180 min, ×10⁻⁶ cm/s": 1.7}

Next:
(Q) Would you mind telling me what Papp A→B at 180 min value was observed for CC(C)C[C@H]1C(=O)N(C)[C@@H](Cc2ccccc2)C(=O)N(C)[C@@H](Cc2ccccc2)C(=O)N[C@@H]([C@@H](C)O)C(=O)N(C)[C@@H](C)C(=O)N(C)[C@@H](Cc2ccccc2)C(=O)N[C@H](C(=O)N2CCCCC2)CC(=O)N(C)[C@@H](C)C(=O)N(C)[C@@H](Cc2ccccc2)C(=O)N(C)[C@@H](CC(C)C)C(=O)N[C@@H](C(C)C)C(=O)N1C [pd233] ([NMeA][NMeF][NMeL]V[NMeL][NMeF][NMeF]T[NMeA][NMeF]D-Piperidide; lactam N-11) ?
(A) 0.17

---

Experiment: Caco-2 membrane permeability, improved method as used in the following Examples (96-well, 20 to 24 h preincubation)
Type: in vitro ADME
Details: human, Caco-2, Caco-2 (cm/sec)
Positions of bridges follow the written chain, without caps; N, C: chain ends. Non-standard residues stand in square brackets, D forms with d. Residues, ends and D or L forms follow the SMILES beside them. *: point of attachment. NMePhe(3-Cl) = CN[C@@H](Cc1cccc(Cl)c1)C(=O)O; NMePhe(4-Cl) = CN[C@@H](Cc1ccc(Cl)cc1)C(=O)O; NMeF = CN[C@@H](Cc1ccccc1)C(=O)O; NMeD = CN[C@@H](CC(=O)O)C(=O)O; NMeL = CN[C@@H](CC(C)C)C(=O)O; NMeV = CN[C@H](C(=O)O)C(C)C; NMeA = CN[C@@H](C)C(=O)O; Piperidide = C1CCN(*)CC1; Sar = CNCC(=O)O; tBu = CC(C)(C)*
Property: Papp A→B at 180 min (×10⁻⁶ cm/s)
Hi! Could you send only the number? It should be in ×10⁻⁶ cm/s, unit omitted.

{"Compound": "CC(C)C[C@H]1C(=O)N[C@@H](COC(C)(C)C)C(=O)N(C)[C@@H](Cc2ccccc2)C(=O)N(C)[C@@H](CC(C)C)C(=O)N(C)[C@H](C(=O)N2CCCCC2)CC(=O)N2CCC[C@@H]2C(=O)N(C)[C@@H](Cc2cccc(Cl)c2)C(=O)N[C@@H](C(C)C)C(=O)N(C)[C@@H](C(C)C)C(=O)N[C@@H]([C@@H](C)O)C(=O)N(C)CC(=O)N1C [pd165] ([dP][NMePhe(3-Cl)]V[NMeV]T[Sar][NMeL]S(tBu)[NMeF][NMeL][NMeD]-Piperidide; lactam N-11)", "Property": "Papp A→B at 180 min", "Scale unit": "×10⁻⁶ cm/s", "Measured number": 2.8}
{"Compound": "CC(C)C[C@@H]1NC(=O)CN(C)C(=O)[C@H](Cc2ccccc2)N(C)C(=O)[C@@H](C)NC(=O)C[C@@H](C(=O)N2CCCCC2)NC(=O)[C@H](Cc2ccccc2)N(C)C(=O)[C@H](Cc2ccccc2)N(C)C(=O)[C@H](COC(C)(C)C)NC(=O)[C@H](CC(C)C)N(C)C(=O)[C@H](Cc2ccccc2)NC(=O)[C@H]([C@@H](C)O)NC1=O [pd246] ([dA][NMeF][Sar]LTF[NMeL]S(tBu)[NMeF][NMeF]D-Piperidide; lactam N-11)", "Property": "Papp A→B at 180 min", "Scale unit": "×10⁻⁶ cm/s", "Measured number": 0.014}

(Q) Quick one: Papp A→B at 180 min of CC[C@H](C)[C@@H]1NC(=O)[C@H](CC(C)C)N(C)C(=O)CN(C)C(=O)[C@H]([C@@H](C)O)NC(=O)[C@H](Cc2ccccc2)N(C)C(=O)[C@H](CC(C)C)NC(=O)[C@H](Cc2ccccc2)N(C)C(=O)[C@@H](CC(C)C)NC(=O)C[C@@H](C(=O)N2CCCCC2)NC(=O)[C@H](CC(C)C)N(C)C(=O)[C@H](Cc2ccccc2)N(C)C1=O [pd225] ([dL][NMeF]L[NMeF]T[Sar][NMeL]I[NMeF][NMeL]D-Piperidide; lactam N-11) ?
(A) 1

(Q) Form field: reported Papp A→B at 180 min of CC(C)C[C@@H]1NC(=O)[C@H](C)N(C)C(=O)C[C@@H](C(=O)N2CCCCC2)NC(=O)[C@H](CC(C)C)N(C)C(=O)CN(C)C(=O)[C@H]([C@@H](C)O)NC(=O)[C@H](CC(C)C)N(C)C(=O)[C@H](Cc2ccc(Cl)cc2)N(C)C(=O)[C@H](C)NC(=O)[C@H](Cc2ccccc2)N(C)C(=O)[C@H](CC(C)C)N(C)C1=O [pd173] ([NMeA]L[NMeL][NMeF]A[NMePhe(4-Cl)][NMeL]T[Sar][NMeL]D-Piperidide; lactam N-11)
(A) 1.6

Taken from patent US20200131669A1.
